We begin with a simple list: items and their reported MIC S. aureus.
# Tested on: S. aureus
Where no end group is shown, it is not given here.

WRIHLRARLHVKFRF [Peptide S3L8-4, WRIHLRARLHVKFRF]
62.5 µg/mL
LRLFLRF [Peptide S3L8-43, LRLFLRF]
>125 µg/mL

Supply MIC S. aureus measured with S. aureus for LRLFLRWLF [Peptide S3L8-39, LRLFLRWLF] .
16 µg/mL

---

Each entry below lists one item and its recorded MIC S. mutans value.
# Tested on: clinical isolates of S. mutans
# Format: cell-based, Streptococcus mutans
# EXPERIMENTAL PARAMETERS: clinical isolates of
Where no end group is shown, it is not given here.
Give the quantity in µg/mL, number only.

Guide cases for MIC S. mutans, answers given:
VLRHLFRHRIVF [Peptide S3L8-21, VLRHLFRHRIVF]
60
FVFRHKWVWKHRFLF [Peptide S3L8-1, FVFRHKWVWKHRFLF]
16

Supply reported MIC S. mutans belonging to this sequence: LRLFLRWLF [Peptide S3L8-39, LRLFLRWLF]
16
